Experimental target: Na,K-ATPase (Sus scrofa)
Method summary: Equilibrium binding of 14C-ADP to membrane-bound Na,K-ATPase
Design: species or system pig
Condition: read-out: K diss for ADP-binding; 19 mM Cl− + 100 mM Na+ salt of ClO4−; I 178 mM
Endpoint: pKd
Recall that pKd is obtained by taking minus log10 of the concentration measured in molar.

Data request: // returns reported pKd for input Nc1ncnc2c1ncn2[C@@H]1O[C@H](COP(=O)(O)OP(=O)(O)O)[C@@H](O)[C@H]1O [ADP]
Data returned: 4.41

----------
Experimental target: Na,K-ATPase (Sus scrofa, UniProt P05024)
Method summary: Equilibrium binding of 14C-ADP to membrane-bound Na,K-ATPase
Design: species or system pig
Condition: read-out: K diss for ADP-binding; 19 mM Cl− + 100 mM NaCl (Cl−); I 178 mM
Endpoint: pKd
# reply with the number alone; pKd is -log10 of concentration in mol/L

Data request: Returns the measured pKd for the input compound. Input: Nc1ncnc2c1ncn2[C@@H]1O[C@H](COP(=O)(O)OP(=O)(O)O)[C@@H](O)[C@H]1O
Data returned: 6.19
